# STUDY_SYSTEM: CYP2D6 (Homo sapiens)
# Sequence (P10635 whole entry): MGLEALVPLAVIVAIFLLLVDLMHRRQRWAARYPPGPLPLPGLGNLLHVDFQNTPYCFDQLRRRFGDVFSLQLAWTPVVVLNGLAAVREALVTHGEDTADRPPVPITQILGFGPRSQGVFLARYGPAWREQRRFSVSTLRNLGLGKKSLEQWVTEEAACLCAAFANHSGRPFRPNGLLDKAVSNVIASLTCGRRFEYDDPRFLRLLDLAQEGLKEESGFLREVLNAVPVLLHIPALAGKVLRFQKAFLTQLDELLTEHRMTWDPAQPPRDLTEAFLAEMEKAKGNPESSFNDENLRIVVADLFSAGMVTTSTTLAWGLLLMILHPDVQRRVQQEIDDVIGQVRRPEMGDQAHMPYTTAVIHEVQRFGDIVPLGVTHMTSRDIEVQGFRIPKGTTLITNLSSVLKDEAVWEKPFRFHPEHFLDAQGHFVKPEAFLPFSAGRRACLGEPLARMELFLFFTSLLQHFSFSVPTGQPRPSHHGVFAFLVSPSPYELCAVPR
# ASSAY_COMMENT: Inhibition of CYP2D6 in human liver microsomes at 10 uM using probe substrate and in presence of co-factor measured after 20 mins by LC-MS/MS analysis relative to control
# Format: ADME
PROPERTY: inhibition at 20 min, 10 µM

IN: Annotate the compound COc1cc2c(cc1OC)-c1cc(NCc3ccccc3)nc(=O)n1CC2 with its measured inhibition at 20 min, 10 µM.
OUT: < 33%

---

# ASSAY_COMMENT: in vitro
# MEASUREMENT_CONDITIONS: mouse, cryopreserved hepatocytes
Entries and their CLint scaled at 1 µM values follow.
Could you give me the number in mL/min/kg? Just the number is fine.

Here is how some molecules turned out for CLint scaled at 1 µM.
IN: Annotate the molecule COc1ccc2c(c1)CCn1c-2cc(OCC2CCCO2)nc1=O (configuration not stated) with its measured CLint scaled at 1 µM.
OUT: 647

IN: Annotate the molecule COc1ccc2c(c1)CCn1c-2cc(OCC2CCCCO2)nc1=O (configuration not stated) with its measured CLint scaled at 1 µM.
OUT: 575

IN: Annotate the molecule COc1ccc2c(c1)CCn1c-2cc(OCC2COc3ccccc3O2)nc1=O (configuration not stated) with its measured CLint scaled at 1 µM.
OUT: 375

IN: Annotate the molecule COc1ccc2c(c1)CCn1c-2cc(OC[C@H]2COc3ncccc3O2)nc1=O with its measured CLint scaled at 1 µM.
OUT: 182

Turning to the following molecule.
IN: Annotate the molecule COc1ccc2c(c1)CCn1c-2cc(OCC2COCCO2)nc1=O (configuration not stated) with its measured CLint scaled at 1 µM.
OUT: 262

---

# ASSAY_COMMENT: in vivo
# MEASUREMENT_CONDITIONS: CD1, mouse, iv, 1 mg/kg
PROPERTY: AUC(0-t) at 24 h (ng·h/mL)
Could you give me the number in ng·h/mL? Just the number is fine.

IN: Annotate the compound O=c1nc(OC[C@@H]2COCCO2)cc2n1CCc1cc(C#CC3CC3)ccc1-2 with its measured AUC(0-t) at 24 h.
OUT: 1050

---

# ASSAY_COMMENT: in vivo
# MEASUREMENT_CONDITIONS: Beagle, dog, iv, 0.5 mg/kg
PROPERTY: AUC(0-t) at […] (ng·h/mL)
Could you give me the number in ng·h/mL? Just the number is fine.

IN: Annotate the compound O=c1nc(OC[C@@H]2COCCO2)cc2n1CCc1cc(C#CC3CC3)ccc1-2 with its measured AUC(0-t) at […].
OUT: 410

---

# ASSAY_COMMENT: in vitro
# MEASUREMENT_CONDITIONS: rat, liver microsomes
Entries and their log10 of CLint scaled at 0.5 h, 1 µM values follow.
All values: log10 CLint scaled at 0.5 h, 1 µM [mL/min/kg].

IN: Annotate the compound O=c1nc(OCC2COCCO2)cc2n1CCc1cc(C#CC3CC3)ccc1-2 (racemic) with its measured log10 of CLint scaled at 0.5 h, 1 µM.
OUT: 1.37

IN: Annotate the compound CC(C)CC(O)C#Cc1ccc2c(c1)CCn1c-2cc(OCC2COCCO2)nc1=O (stereo not drawn) with its measured log10 of CLint scaled at 0.5 h, 1 µM.
OUT: 2.41

New cases:
IN: Annotate the compound N#Cc1ccccc1-c1ccc2c(c1)CCn1c-2cc(OCC2COCCO2)nc1=O (stereo not drawn) with its measured log10 of CLint scaled at 0.5 h, 1 µM.
OUT: 2.02

IN: Annotate the compound COc1ccc2c(c1)CCn1c-2cc(OCC2COc3ccccc3O2)nc1=O (stereo not drawn) with its measured log10 of CLint scaled at 0.5 h, 1 µM.
OUT: 2.79

IN: Annotate the compound COc1ccc2c(c1)CCn1c-2cc(OC[C@H]2COc3ncccc3O2)nc1=O with its measured log10 of CLint scaled at 0.5 h, 1 µM.
OUT: 2.18

IN: Annotate the compound O=c1nc(OC[C@H]2COCCO2)cc2n1CCc1cc(C#CC3CC3)ccc1-2 with its measured log10 of CLint scaled at 0.5 h, 1 µM.
OUT: 1.92

IN: Annotate the compound O=c1nc(OC[C@@H]2COCCO2)cc2n1CCc1cc(C#CC3CC3)ccc1-2 with its measured log10 of CLint scaled at 0.5 h, 1 µM.
OUT: 1.82

---

# STUDY_SYSTEM: Cytochrome P450 3A4 (Homo sapiens)
# ASSAY_COMMENT: Time-dependent inhibition of CYP3A4 in human liver microsomes using midazolam as substrate and in presence of co-factor by LC-MS/MS analysis
PROPERTY: IC50

IN: Annotate the compound O=c1nc(OC[C@@H]2COCCO2)cc2n1CCc1cc(C#CC3CC3)ccc1-2 [GLPG-1205] with its measured IC50.
OUT: > 50 µM

---

# ASSAY_COMMENT: in vivo
# MEASUREMENT_CONDITIONS: male, Sprague-Dawley, rat, po, 5 mg/kg
PROPERTY: Tmax (h)
Could you give me the number in h? Just the number is fine.

IN: Annotate the molecule O=c1nc(OCC2COCCO2)cc2n1CCc1cc(C#CC3CC3)ccc1-2 (racemic) with its measured Tmax.
OUT: 1.7

---

# STUDY_SYSTEM: CYP2C9 (Homo sapiens, UniProt P11712)
# Sequence (P11712 whole entry): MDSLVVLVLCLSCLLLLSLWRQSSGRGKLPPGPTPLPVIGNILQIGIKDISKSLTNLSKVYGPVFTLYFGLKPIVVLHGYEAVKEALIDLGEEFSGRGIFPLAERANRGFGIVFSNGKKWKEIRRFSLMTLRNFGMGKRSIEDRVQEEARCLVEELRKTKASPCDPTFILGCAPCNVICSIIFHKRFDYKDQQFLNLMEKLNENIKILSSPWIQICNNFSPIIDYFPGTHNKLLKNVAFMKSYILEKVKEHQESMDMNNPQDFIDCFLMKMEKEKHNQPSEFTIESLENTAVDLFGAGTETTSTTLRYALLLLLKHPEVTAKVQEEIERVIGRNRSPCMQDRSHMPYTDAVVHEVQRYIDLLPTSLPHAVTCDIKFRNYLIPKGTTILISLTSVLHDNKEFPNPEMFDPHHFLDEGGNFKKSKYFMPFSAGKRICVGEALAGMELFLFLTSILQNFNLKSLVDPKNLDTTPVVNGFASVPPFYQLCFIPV
# ASSAY_COMMENT: Inhibition of CYP2C9 in human liver microsomes at 10 uM using probe substrate and in presence of co-factor measured after 20 mins by LC-MS/MS analysis relative to control
# Format: ADME
PROPERTY: inhibition at 20 min, 10 µM

IN: Annotate the molecule COc1cc2c(cc1OC)-c1cc(NCc3ccccc3)nc(=O)n1CC2 with its measured inhibition at 20 min, 10 µM.
OUT: < 33%

---

# ASSAY_COMMENT: physchem
# MEASUREMENT_CONDITIONS: aqueous solution with 2% DMSO, pH 7.4
PROPERTY: solubility

IN: Annotate the molecule COc1cc2c(cc1OC)-c1cc(OCc3ccccc3F)nc(=O)n1CC2 with its measured solubility.
OUT: 26 µg/mL

IN: Annotate the molecule COc1cc2c(cc1OC)-c1cc(OCCOc3ccccc3)nc(=O)n1CC2 with its measured solubility.
OUT: 26 µg/mL

IN: Annotate the molecule O=c1nc(OC[C@@H]2COCCO2)cc2n1CCc1cc(C#CC3CC3)ccc1-2 [GLPG-1205] with its measured solubility.
OUT: 113 µg/mL

IN: Annotate the molecule COc1cc2c(cc1OC)-c1cc(OCCCc3ccccc3)nc(=O)n1CC2 with its measured solubility.
OUT: 3 µg/mL

IN: Annotate the molecule CCCCCCOc1cc2n(c(=O)n1)CCc1cc(OC)c(OC)cc1-2 with its measured solubility.
OUT: 3 µg/mL

IN: Annotate the molecule O=c1nc(OC[C@H]2COCCO2)cc2n1CCc1cc(C#CC3CC3)ccc1-2 with its measured solubility.
OUT: 113 µg/mL

New cases:
IN: Annotate the molecule COc1cc2c(cc1OC)-c1cc(OCCOc3ccccn3)nc(=O)n1CC2 with its measured solubility.
OUT: 18 µg/mL

IN: Annotate the molecule COc1cc2c(cc1OC)-c1cc(OCC3CCCO3)nc(=O)n1CC2 (stereo not drawn) with its measured solubility.
OUT: 72 µg/mL

---

Entries and their CLint scaled at 1 µM values follow.
# ASSAY_COMMENT: in vitro
# MEASUREMENT_CONDITIONS: dog, cryopreserved hepatocytes

IN: Annotate the molecule O=c1nc(OC[C@@H]2COCCO2)cc2n1CCc1cc(C#CC3CC3)ccc1-2 [GLPG-1205] with its measured CLint scaled at 1 µM.
OUT: < 24.2 mL/min/kg

IN: Annotate the molecule O=c1nc(OC[C@H]2COCCO2)cc2n1CCc1cc(C#CC3CC3)ccc1-2 with its measured CLint scaled at 1 µM.
OUT: < 32 mL/min/kg

---

# ASSAY_COMMENT: in vivo
# MEASUREMENT_CONDITIONS: male, Sprague-Dawley, rat, iv, 0.5 mg/kg
PROPERTY: AUC(0-t) at 24 h (ng·h/mL)
Could you give me the number in ng·h/mL? Just the number is fine.

IN: Annotate the molecule O=c1nc(OC[C@@H]2COCCO2)cc2n1CCc1cc(C#CC3CC3)ccc1-2 with its measured AUC(0-t) at 24 h.
OUT: 710

---

# STUDY_SYSTEM: Cytochrome P450 3A4 (Homo sapiens, UniProt P08684)
# Sequence (P08684 whole entry): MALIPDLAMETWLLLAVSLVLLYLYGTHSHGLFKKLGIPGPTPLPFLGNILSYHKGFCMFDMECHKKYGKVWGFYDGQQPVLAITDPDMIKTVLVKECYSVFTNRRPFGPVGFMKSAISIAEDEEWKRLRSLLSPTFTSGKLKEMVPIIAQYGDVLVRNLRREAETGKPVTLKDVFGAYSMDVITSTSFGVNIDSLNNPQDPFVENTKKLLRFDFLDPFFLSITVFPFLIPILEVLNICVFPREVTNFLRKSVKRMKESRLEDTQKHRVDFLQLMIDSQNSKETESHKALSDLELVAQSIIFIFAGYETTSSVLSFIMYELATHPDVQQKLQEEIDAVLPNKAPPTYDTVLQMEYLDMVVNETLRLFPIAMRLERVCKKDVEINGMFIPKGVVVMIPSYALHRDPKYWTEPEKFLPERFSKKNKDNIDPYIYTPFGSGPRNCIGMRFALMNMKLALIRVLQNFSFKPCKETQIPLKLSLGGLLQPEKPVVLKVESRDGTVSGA
# ASSAY_COMMENT: Inhibition of CYP3A4 in human liver microsomes using midazolam as substrate and in presence of co-factor preincubated for 20 mins followed by substrate addition by LC-MS/MS analysis
PROPERTY: IC50

IN: Annotate the molecule O=c1nc(OC[C@@H]2COCCO2)cc2n1CCc1cc(C#CC3CC3)ccc1-2 with its measured IC50.
OUT: > 50 µM

New cases:
IN: Annotate the molecule O=c1nc(OC[C@H]2COCCO2)cc2n1CCc1cc(C#CC3CC3)ccc1-2 with its measured IC50.
OUT: > 50 µM
